meta.source: paper PMC4051630

Measured Melting temperature (Tm) shift by item
Biological target: DMPK Catalytic Domain (Homo sapiens)
Construct: For all of them, we expressed and purified the catalytic domain separately; His-tag; made in house; host or cells: Escherichia coli
Sequence (Q09013 71-339 limits assumed): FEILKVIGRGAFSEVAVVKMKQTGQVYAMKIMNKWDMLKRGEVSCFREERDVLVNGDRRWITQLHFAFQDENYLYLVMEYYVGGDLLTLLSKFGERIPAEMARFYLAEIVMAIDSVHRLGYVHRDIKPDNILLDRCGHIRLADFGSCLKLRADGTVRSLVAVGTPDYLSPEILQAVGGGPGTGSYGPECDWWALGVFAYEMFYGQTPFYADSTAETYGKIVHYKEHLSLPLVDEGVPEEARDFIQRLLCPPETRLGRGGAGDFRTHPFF
Assay: Differential Scanning Fluorimetry (DSF) Tm shift
Assay type: binding
Conditions: 2 µM protein, 10 µM inhibitor, average of 3 experiments, each in duplicate
Number first, unit second: that is the form wanted.

Some solved cases for reference:
[[record]]
compound = "c1nc2nc(Nc3ccc(N4CCOCC4)cc3)nc(NC3CCCCC3)c2[nH]1 [Reversine]"
measured_target = "DMPK Catalytic Domain (Homo sapiens)"
experimental_readout = "Melting temperature (Tm) shift"
result = "3.4 degrees Celcius"

[[record]]
compound = "Brc1c(Br)c(Br)c2n[nH]nc2c1Br [Casein Kinase II Inhibitor I]"
measured_target = "DMPK Catalytic Domain (Homo sapiens)"
experimental_readout = "Melting temperature (Tm) shift"
result = "0.6 degrees Celcius"

[[record]]
compound = "Cl.Cl.NCCNc1ncc(C(N)=O)c(Nc2cccc(C(F)(F)F)c2)n1 [Syk Inhibitor II]"
measured_target = "DMPK Catalytic Domain (Homo sapiens)"
experimental_readout = "Melting temperature (Tm) shift"
result = "0.7 degrees Celcius"


For Cn1cc(/C=C2\C(=O)Nc3ccc(S(N)(=O)=O)cc32)c2ccccc21 [Syk Inhibitor] , write its Melting temperature (Tm) shift.
0.9 degrees Celcius

For COc1ccc2c(c1)c1c3c(c4c5ccccc5n(C)c4c1n2CC(O)CN(C)C)C(=O)NC3=O.Cl (stereo not shown) [Gö 7874, Hydrochloride] , write its Melting temperature (Tm) shift.
0.2 degrees Celcius

For O=C1Nc2ccc3ncsc3c2/C1=C/c1cnc[nH]1 [PKR Inhibitor] , write its Melting temperature (Tm) shift.
0.8 degrees Celcius

For O=C1NC(=O)/C(=C/c2ccc3nccnc3c2)S1 [PI 3-Kg Inhibitor] , write its Melting temperature (Tm) shift.
0.8 degrees Celcius

###

target: CDK2 + Cyclin A (Homo sapiens); construct: CDK2 (P24941); 1–299; His-tag; made in house; host or cells: Escherichia coli; assay: Differential Scanning Fluorimetry (DSF) Tm shift; type: binding; details: CDK2 + Cyclin A; 2 µM protein, 10 µM inhibitor; average of 3 experiments, each in duplicate
Measured Melting temperature (Tm) shift by item
Output spec: scalar in degrees Celcius, unitless text.

[[record]]
structure_smiles_string = "N#Cc1c(-c2ccccc2)cc(-c2cc(Br)ccc2O)[nH]c1=O"
experimental_readout = "Melting temperature (Tm) shift"
result = 0.4

[[record]]
structure_smiles_string = "COc1ccc2c(c1)c(C1=C(c3c[nH]c4ccccc34)C(=O)NC1=O)cn2CCCN(C)C"
experimental_readout = "Melting temperature (Tm) shift"
result = 0.4


Moving on to the next compound.
Fetch value of Melting temperature (Tm) shift on CDK2 + Cyclin A (Homo sapiens) for O=C1Cc2c([nH]c3ccc(Br)cc23)-c2ccccc2N1 .
0.4
